# runDescription: Cytotoxicity (MTT) in HepG2.2.15 cells
# Assay type: cell-based
# experimentalParameters: human, 6 days treatment, read-out: HepG2.1.15 cytotoxicity (CC50)
Item-by-item account of CC50 at 6 days
reportedEndpoint: CC50 at 6 days

>>> result("C[C@H]1[C@@H](C(=O)Nc2cc(F)c(F)c(F)c2)CCN1C(=O)c1[nH]c2ccccc2c1Cl")
"> 25 µM"
>>> result("Cc1cc(NC(=O)[C@H]2CCN(C(=O)c3[nH]c4ccccc4c3Cl)C2)ccc1F")
"> 25 µM"
>>> result("Cc1[nH]nc(C(F)(F)F)c1-c1ccc(C(=O)N2CC[C@H](C(=O)Nc3ccc(F)c(C#N)c3)[C@@H]2C)[nH]1")
"10 to 25 µM"
